Reported values of IC50 for individual entries
- Tested system: Cx43 hemichannels (HeLa-Cx43 cells) (Mus musculus, UniProt P23242)
- Sequence (P23242 whole entry): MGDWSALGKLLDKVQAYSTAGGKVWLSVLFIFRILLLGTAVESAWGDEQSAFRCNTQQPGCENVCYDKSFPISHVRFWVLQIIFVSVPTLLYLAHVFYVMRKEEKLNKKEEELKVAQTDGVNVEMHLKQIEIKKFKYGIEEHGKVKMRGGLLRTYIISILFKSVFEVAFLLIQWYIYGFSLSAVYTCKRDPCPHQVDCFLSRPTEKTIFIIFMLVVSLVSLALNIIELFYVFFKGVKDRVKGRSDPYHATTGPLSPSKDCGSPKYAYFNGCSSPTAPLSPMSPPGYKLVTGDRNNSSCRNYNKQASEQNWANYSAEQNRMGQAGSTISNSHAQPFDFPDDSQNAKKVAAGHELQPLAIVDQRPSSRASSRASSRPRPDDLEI
- Format: cell-based
Ends that are not written are not given here.

{"Sequence string": "VCYDKSFPISHVR [Gap26, VCYDKSFPISHVR]", "IC50": "~81 µM"}
{"Sequence string": "SRPTEKTIFII [Gap27, SRPTEKTIFII]", "IC50": "~161 µM"}
